molecular target: T1, monomeric human PRLR (hPRLR.mmh; SEQ ID NO:401) (Homo sapiens, UniProt P16471); test: Surface plasmon resonance (Biacore T200), antibody-capture format; assay type: binding; conditions: 25° C., analyte hPRLR.mmh
T1 construct: soluble monomeric (hPRLR.mmh); mmh (myc-myc-hexahistidine) (C)
T1 sequence (P16471 with tags, fused parts or gaps): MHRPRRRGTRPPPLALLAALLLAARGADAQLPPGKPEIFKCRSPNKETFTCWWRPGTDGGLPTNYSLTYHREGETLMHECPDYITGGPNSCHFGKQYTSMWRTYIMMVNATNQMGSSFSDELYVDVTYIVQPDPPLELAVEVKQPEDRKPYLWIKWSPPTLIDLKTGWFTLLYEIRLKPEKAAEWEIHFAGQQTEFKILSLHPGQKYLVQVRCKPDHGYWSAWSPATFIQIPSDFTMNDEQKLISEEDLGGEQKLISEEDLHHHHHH
reported_endpoint: kd (s⁻¹)
One number for each entry, in s⁻¹.

stdin: Could you share which kd value was measured for H1H6762P: fully human anti-PRLR antibody, human IgG1 Fc; HCVR/LCVR SEQ ID NOs 2/10 (antibody, V domains shown) VH: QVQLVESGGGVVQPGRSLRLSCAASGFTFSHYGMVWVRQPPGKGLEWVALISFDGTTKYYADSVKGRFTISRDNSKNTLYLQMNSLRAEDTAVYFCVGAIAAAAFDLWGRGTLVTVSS VL: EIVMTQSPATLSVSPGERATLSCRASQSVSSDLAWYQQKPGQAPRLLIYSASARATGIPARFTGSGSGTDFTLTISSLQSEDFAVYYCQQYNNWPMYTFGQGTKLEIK ?
stdout: 0.000179
